Reference source: patent US20230233569A1

Some molecules, each annotated with its measured pIC50.
# experimental.target: KRAS G12S (Homo sapiens, UniProt P01116+P62937, G12S)
# Sequence (P01116 1-169 isoform P01116-2 G12S limits assumed, one chain of several): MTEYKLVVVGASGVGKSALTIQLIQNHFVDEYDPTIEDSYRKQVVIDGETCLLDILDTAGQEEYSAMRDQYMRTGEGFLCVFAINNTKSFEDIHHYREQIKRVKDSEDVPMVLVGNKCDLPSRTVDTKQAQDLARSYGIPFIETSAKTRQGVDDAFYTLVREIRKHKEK
# assay.notes: Disruption of BRAF RBD interaction with Ras (FRET / MOA assay, with Cyclophilin A)
# Format: biochemical
# measurement.context: read-out: KRAS G12S FRET data, IC50
pIC50: −log10 of the molar value.

Reference set, count: 3
molecule	test.value
CCn1c(-c2cnccc2COC)c2c3cc(ccc31)-c1cc(O)cc(c1)C[C@H](NC(=O)[C@H](C(C)C)N(C)C(=O)[C@H]1CCNC1)C(=O)N1CCC[C@H](N1)C(=O)OCC(C)(C)C2 [Example A10]	7.00 to 8.00
CCn1c(-c2cccnc2[C@H](C)OC)c2c3cc(ccc31)-c1csc(n1)C[C@H](NC(=O)[C@H](C(C)C)N(C)C(=O)N1CC([C@H](C)NC)C1)C(=O)N1CCC[C@H](N1)C(=O)OCC(C)(C)C2 [Example A535]	6.00 to 7.00
C=CC(=O)N1CC(OC[C@H](C(=O)N[C@H]2Cc3cccc(c3)-c3ccc4c(c3)c(c(-c3cccnc3[C@H](C)OC)n4CC)CC(C)(C)COC(=O)[C@@H]3CCCN(N3)C2=O)C(C)C)C1 (racemic) [Example A483]	< 5.00

For the next question, use this molecule.
## Task Would you kindly share the measured pIC50 for CCn1c(-c2cccnc2[C@H](C)OC)c2c3cc(ccc31)-c1csc(n1)C[C@H](NC(=O)[C@H](C(C)C)N(C)C(=O)N1CCCC[C@@H](N(C)C)C1)C(=O)N1CCC[C@H](N1)C(=O)OCC(C)(C)C2 [Example A492] ?
## Result 6.00 to 7.00

* * *

# experimental.target: KRAS G13C (Homo sapiens, UniProt P01116+P62937, G13C)
# Sequence (P01116 1-169 isoform P01116-2 G13C, one chain of several): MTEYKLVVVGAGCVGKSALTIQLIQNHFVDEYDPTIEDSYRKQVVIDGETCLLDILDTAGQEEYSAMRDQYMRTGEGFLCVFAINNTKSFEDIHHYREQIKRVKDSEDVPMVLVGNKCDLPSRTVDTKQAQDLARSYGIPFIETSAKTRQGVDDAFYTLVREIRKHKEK
# assay.notes: Disruption of BRAF RBD interaction with Ras (FRET / MOA assay, with Cyclophilin A)
# Format: biochemical
# measurement.context: read-out: KRAS G13C FRET data, IC50
quantity.name: IC50

Field: example entries. Status: answers known.
smi	quantity.name	test.value
CCn1c(-c2cccnc2[C@H](C)OC)c2c3cc(ccc31)-c1csc(n1)C[C@H](NC(=O)[C@H](C(C)C)N(C)C(=O)N1CCCC13CCN(C)CC3)C(=O)N1CCC[C@H](N1)C(=O)OCC(C)(C)C2	IC50	100 to 1000 nM
CCn1c(-c2cnccc2COC)c2c3cc(ccc31)-c1cc(O)cc(c1)C[C@H](NC(=O)[C@H](C(C)C)N(C)C(=O)O[C@H]1CCOC1)C(=O)N1CCC[C@H](N1)C(=O)OCC(C)(C)C2	IC50	1000 to 10000 nM

# evaluate next
## Task So what does the record say about IC50 for CCN(C(=O)N(C)[C@H](C(=O)N[C@H]1Cc2nc(cs2)-c2ccc3c(c2)c(c(-c2cccnc2[C@H](C)OC)n3CC)CC(C)(C)COC(=O)[C@@H]2CCCN(N2)C1=O)C(C)C)C(C)C ?
## Result 100 to 1000 nM

* * *

# experimental.target: KRAS G12C (Homo sapiens, UniProt P01116+P62937, G12C)
# Sequence (P01116 1-169 isoform P01116-2 G12C): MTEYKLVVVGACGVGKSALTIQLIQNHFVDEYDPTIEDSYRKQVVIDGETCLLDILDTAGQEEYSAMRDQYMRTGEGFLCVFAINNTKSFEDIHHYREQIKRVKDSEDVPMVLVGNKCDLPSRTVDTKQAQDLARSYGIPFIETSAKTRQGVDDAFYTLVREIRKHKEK
# Sequence (P62937 whole entry): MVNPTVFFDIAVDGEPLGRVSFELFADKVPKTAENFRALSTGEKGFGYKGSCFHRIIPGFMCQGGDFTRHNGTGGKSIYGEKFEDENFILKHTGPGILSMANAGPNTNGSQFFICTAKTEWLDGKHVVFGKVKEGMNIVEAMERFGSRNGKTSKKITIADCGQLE
# assay.notes: Disruption of BRAF RBD interaction with Ras (FRET / MOA assay, with Cyclophilin A)
# Type: biochemical
# measurement.context: read-out: KRAS G12C FRET data, IC50
pIC50: −log10 of the molar value.
quantity.name: pIC50

molecule	test.value
CCn1c(-c2cccnc2[C@H](C)OC)c2c3cc(ccc31)-c1csc(n1)C[C@H](NC(=O)[C@H](C(C)C)N(C)C(=O)N1[C@@H](C)CN(C)C[C@@H]1C)C(=O)N1CCC[C@H](N1)C(=O)OCC(C)(C)C2	5.00 to 6.00

## Task Quick one: pIC50 of CCn1c(-c2cccnc2[C@H](C)OC)c2c3cc(ccc31)-c1cc(O)cc(c1)C[C@H](NS(=O)(=O)c1cnc[nH]1)C(=O)N1CCC[C@H](N1)C(=O)OCC(C)(C)C2 (racemic) ?
## Result < 5.00

## Task Requested field: pIC50. Item: CCn1c(-c2cc(N3CCN(C)CC3)cnc2[C@H](C)OC)c2c3cc(ccc31)-c1cc(O)cc(c1)C[C@H](NC(=O)[C@H](C(C)C)N(C)C(=O)[C@@H]1OCC[C@@H]1c1ccccc1)C(=O)N1CCC[C@H](N1)C(=O)OCC(C)(C)C2 (atropisomer, axis not shown)
## Result > 8.00

* * *

# experimental.target: KRAS WT (Homo sapiens, UniProt P01116+P62937)
# Sequence (P01116 1-169 isoform P01116-2 limits assumed): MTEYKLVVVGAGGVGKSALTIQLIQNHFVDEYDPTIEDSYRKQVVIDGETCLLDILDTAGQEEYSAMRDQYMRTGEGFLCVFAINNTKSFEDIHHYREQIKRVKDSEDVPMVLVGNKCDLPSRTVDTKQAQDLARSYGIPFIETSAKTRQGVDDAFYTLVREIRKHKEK
# Sequence (P62937 whole entry): as the sequence (P62937 whole entry) above
# assay.notes: Disruption of BRAF RBD interaction with Ras (FRET / MOA assay, with Cyclophilin A)
# Type: biochemical
# measurement.context: KRAS WT; read-out: KRAS WT FRET data IC50
pIC50: −log10 of the molar value.
quantity.name: pIC50

These recorded examples may help you get a feel for the data.
compound	pIC50
CCn1c(-c2cccnc2[C@H](C)OC)c2c3cc(ccc31)-c1csc(n1)C[C@H](NC(=O)[C@H](C(C)C)N(C)C(=O)N1CCC3(CC1)CN(C)CCO3)C(=O)N1CCC[C@H](N1)C(=O)OCC(C)(C)C2	6.00 to 7.00
CCn1c(-c2cccnc2[C@H](C)OC)c2c3cc(ccc31)-c1cc(O)cc(c1)C[C@H](NC(=O)[C@H](C(C)C)N(C)C(=O)C1Cc3cccnc3C1)C(=O)N1CCC[C@H](N1)C(=O)OCC(C)(C)C2 (some centres unmarked)	6.00 to 7.00
CCn1c(-c2cccnc2[C@H](C)OC)c2c3cc(ccc31)-c1csc(n1)C[C@H](NC(=O)[C@H](C(C)C)N(C)C(=O)N1CC(C#N)(N(C)C)C1)C(=O)N1CCC[C@H](N1)C(=O)OCC(C)(C)C2	6.00 to 7.00

## Task Bench note: what pIC50 did C=CC(=O)N1CC[C@H](C(=O)N(C)[C@H](C(=O)N[C@H]2Cc3cc(O)cc(c3)-c3ccc4c(c3)c(c(-c3cccnc3CN(C)C)n4CC)CC(C)(C)COC(=O)[C@@H]3CCCN(N3)C2=O)C(C)C)C1 show?
## Result 5.00 to 6.00

## Task For the compound CCn1c(-c2cccnc2[C@H](C)OC)c2c3cc(ccc31)-c1cc(O)cc(c1)C[C@H](NC(=O)[C@H](C(C)C)N(C)C(=O)C1(O)CC1)C(=O)N1CCC[C@H](N1)C(=O)OCC(C)(C)C2 (atropisomer, axis not shown) , what pIC50 is on record?
## Result 6.00 to 7.00

## Task Form field: reported pIC50 of CCn1c(-c2cccnc2[C@H](C)OC)c2c3cc(ccc31)-c1csc(n1)C[C@H](NC(=O)[C@H](C(C)C)N(C)C(=O)N1CC[C@H]1C(=O)NC)C(=O)N1CC(C)C[C@H](N1)C(=O)OCC(C)(C)C2 (some centres unmarked)
## Result 5.00 to 6.00

## Task So what does the record say about pIC50 for CCn1c(-c2cccnc2[C@H](C)OC)c2c3cc(ccc31)-c1csc(n1)C[C@H](NC(=O)[C@H](C(C)C)N(C)C(=O)N1CC(CN(C)C)(OC)C1)C(=O)N1CCC[C@H](N1)C(=O)OCC(C)(C)C2 (atropisomer, axis not shown) ?
## Result 5.00 to 6.00

## Task pIC50 for CCn1c(-c2cccnc2[C@H](C)OC)c2c3cc(ccc31)-c1cc(O)cc(c1)C[C@H](NC(=O)[C@H](C(C)C)N(C)C(=O)C1CCc3ccccc3N1)C(=O)N1CCC[C@H](N1)C(=O)OCC(C)(C)C2 (some centres unmarked) ?
## Result 6.00 to 7.00

## Task Look at this compound and give its reported pIC50. CCn1c(-c2cnccc2COC)c2c3cc(ccc31)-c1cc(O)cc(c1)C[C@H](NC(=O)[C@H](C(C)C)N(C)C(=O)[C@@H]1CCCN(C)C1)C(=O)N1CCC[C@H](N1)C(=O)OCC(C)(C)C2
## Result 6.00 to 7.00

## Task For the compound shown here, CCn1c(-c2cccnc2[C@H](C)OC)c2c3cc(ccc31)-c1cc(O)cc(c1)C[C@H](NC(=O)[C@H](C(C)C)N(C)C(=O)[C@H]1C[C@@H]1C)C(=O)N1CCC[C@H](N1)C(=O)OCC(C)(C)C2 , give the reported pIC50.
## Result 7.00 to 8.00

## Task Looking for the measured pIC50 of C=CC(=O)N1CC[C@H](C(=O)N(C)[C@H](C(=O)N[C@H]2Cc3cc(O)cc(c3)-c3ccc4c(c3)c(c(-c3cnccc3[C@H](C)OC)n4CC)CC(C)(C)COC(=O)[C@@H]3CCCN(N3)C2=O)C(C)C)C1 , can you help?
## Result 7.00 to 8.00

## Task Recorded pIC50 of CCn1c(-c2cccnc2[C@H](C)OC)c2c3cc(ccc31)-c1csc(n1)C[C@H](NC(=O)[C@H](C(C)C)N(C)C(=O)N1CC3(CC(N4CCOCC4)C3)C1)C(=O)N1CCC[C@H](N1)C(=O)OCC(C)(C)C2 (atropisomer, axis not shown) , please.
## Result 6.00 to 7.00

## Task For the compound CCn1c(-c2cccnc2[C@H](C)OC)c2c3cc(ccc31)-c1cc(O)cc(c1)C[C@H](NC(=O)[C@H](C(C)C)N(C)C(=O)[C@H]1CCC[C@H]1N)C(=O)N1CCC[C@H](N1)C(=O)OCC(C)(C)C2 (atropisomer, axis not shown) , what pIC50 is on record?
## Result 7.00 to 8.00

## Task Value lookup for pIC50; key = CCn1c(-c2cccnc2[C@H](C)OC)c2c3cc(ccc31)-c1csc(n1)C[C@H](NC(=O)[C@H](C(C)C)N(C)C(=O)N1CC3(CC3)C1)C(=O)N1CCC[C@H](N1)C(=O)OCC(C)(C)C2 (atropisomer, axis not shown)
## Result 6.00 to 7.00

## Task So what does the record say about pIC50 for C=CC(=O)N1CC[C@H](C(=O)N(C)[C@H](C(=O)N[C@H]2Cc3cc(O)cc(c3)-c3ccc4c(c3)c(c(-c3cccnc3COC)n4CC)CC(C)(C)COC(=O)[C@@H]3CCCN(N3)C2=O)C2CCCC2)C1 ?
## Result 5.00 to 6.00

## Task Fill in the blank: the reported pIC50 of CCn1c(-c2cccnc2[C@H](C)OC)c2c3cc(ccc31)-c1csc(n1)C[C@H](NC(=O)[C@H](C(C)C)N(C)C(=O)N1CC(N(C)C)C1)C(=O)N1CCC[C@H](N1)C(=O)OCC(C)(C)C2 (racemic) is ____.
## Result 6.00 to 7.00

## Task Entry CCn1c(-c2cccnc2[C@H](C)OC)c2c3cc(ccc31)-c1csc(n1)C[C@H](NC(=O)[C@H](C(C)C)N(C)C(=O)N1[C@@H](C)CN(C)C[C@@H]1C)C(=O)N1CCC[C@H](N1)C(=O)OCC(C)(C)C2 : reported pIC50 = ?
## Result 5.00 to 6.00
